The compounds listed here are annotated with their TGI.
- System: TK-10 renal
- ASSAY EXPLANATION: NCI tumour cell line growth inhibition, 48 h
VALUE KIND: TGI

compound="CCCCCCCCCCCCCCCCCCN(C)CC(COC)OP(=O)([O-])OCC[N+](C)(C)C (configuration not stated)" target_system="TK-10 renal" value_reported="3.06 µM"
compound="O=C1c2cc3c(cc2[C@@H]2C(O)[C@H]4O[C@H]4C4CCN1C42)OCO3 (some centres not stated)" target_system="TK-10 renal" value_reported="> 37.5 µM"
compound="COC(=O)C(=O)C(C(=O)OC)C(=O)C(=O)Nc1cc(Cl)c(C)cc1S(=O)(=O)O (configuration not stated)" target_system="TK-10 renal" value_reported="> 100 µM"
compound=O=C1CCc2cc(Br)ccc2O1 target_system="TK-10 renal" value_reported="> 100 µM"
compound=COc1ccc(OC(=O)N2C/C(=C\c3ccccc3)C(=O)/C(=C/c3ccccc3)C2)cc1 target_system="TK-10 renal" value_reported="44 µM"
compound=CCOC(=O)CCc1c(C)c2c(OC)cc(OC)cc2oc1=O target_system="TK-10 renal" value_reported="> 100 µM"
compound=Cn1cc(-c2csc(-c3ccccc3)n2)c2cccnc21 target_system="TK-10 renal" value_reported="39.1 µM"
compound="COc1ccc(COCC[C@H](C)OC2OC(CO[Si](C)(C)C(C)(C)C)C(O)C(O)C2O)cc1 (some centres not stated)" target_system="TK-10 renal" value_reported="> 100 µM"
compound=O=c1[nH]c(=O)n([C@H]2C[C@@H](CO)[C@@H](O)C2)cc1I target_system="TK-10 renal" value_reported="> 100 µM"
compound=O=c1[nH][nH]c(=O)n1Cc1ccccc1 target_system="TK-10 renal" value_reported="> 100 µM"
compound="C/C(=C\\[Si](C)(C)c1ccco1)C(C)(O)[C@H](C)O (some centres not stated)" target_system="TK-10 renal" value_reported="> 100 µM"
compound=CCN1CCN(Cc2ccc(NC(=O)Nc3nc(-c4cc(OC)c(OC)c(OC)c4)cs3)cc2C(F)(F)F)CC1 target_system="TK-10 renal" value_reported="4.25 µM"
compound=O=[N+]([O-])C(C(Cl)=C(Cl)Cl)=C(N1CCCCC1)N1CCCCC1 target_system="TK-10 renal" value_reported="> 100 µM"
compound="CC(C)CC(N)C(=O)NC(CNC(CCC(N)=O)C(=O)NC(CC(C)C)C(=O)NC(CC(C)C)C(=O)O)Cc1ccc2ccccc2c1 (configuration not stated)" target_system="TK-10 renal" value_reported="> 10 µM"
compound=O=C(O)c1ccc(CSc2nc3ccccc3[nH]2)cc1 target_system="TK-10 renal" value_reported="> 100 µM"
compound=COc1cc(/C=C2\CCC/C(=C\c3cc(CN4CCCC4)c(O)c(OC)c3)C2=O)cc(CN2CCCC2)c1O target_system="TK-10 renal" value_reported="15.5 µM"
compound=CC1(C)N=C(N)N=C(N)N1c1ccc(OCC(=O)Nc2ccc(S(=O)(=O)F)cc2Cl)c(Cl)c1 target_system="TK-10 renal" value_reported="> 100 µM"
compound="CCC1(c2ccc(OC)c(OC)c2)CCN(S(=O)(=O)c2ccc(C)cc2)C1 (configuration not stated)" target_system="TK-10 renal" value_reported="> 100 µM"
compound="CC(=O)Oc1ccc(C2OC(c3ccc4ccccc4c3OC(C)=O)=NN2C(C)=O)c(OC(C)=O)c1 (configuration not stated)" target_system="TK-10 renal" value_reported="> 53.8 µM"
compound="CCCCCCCCCCCCC(O)C1CCC(C(O)CCCCC(O)CCCCCC2CC(CC(C)=O)C(=O)O2)O1 (configuration not stated)" target_system="TK-10 renal" value_reported="14.1 µM"
compound=CCOC(=O)c1c2ccccc2n2c(=O)n(-c3ccc(OC)cc3)nnc12 target_system="TK-10 renal" value_reported="> 84.5 µM"
compound=CN1CCCS/C1=C1/SC(=S)N(c2ccccc2)C1=O target_system="TK-10 renal" value_reported="> 100 µM"
compound=Nc1nc(N)c2cc(S(=O)(=O)c3ccc4ccccc4c3)ccc2n1 target_system="TK-10 renal" value_reported="> 81.2 µM"
compound=O=S(=O)(NCCNc1nccc(-c2c(-c3ccc(F)cc3)nc3sccn23)n1)c1ccc(O)cc1 target_system="TK-10 renal" value_reported="26.3 µM"
compound="O=C1C(Cl)C(c2ccc(O)cc2)N1n1cnc2ccccc2c1=O (configuration not stated)" target_system="TK-10 renal" value_reported="> 100 µM"
compound="COc1ccc2c(c1)OCC1c3cc(OC)c4ccccc4c3OC21 (configuration not stated)" target_system="TK-10 renal" value_reported="53.9 µM"
compound="C[C@@H](NC1CCCC[C@@H]1O)c1ccccc1 (some centres not stated)" target_system="TK-10 renal" value_reported="> 100 µM"
compound="C1=NN2C(c3ccccc3)=NOC2C2C(c3ccccc3)=NOC12 (configuration not stated)" target_system="TK-10 renal" value_reported="> 100 µM"
compound="CCN(N=O)C1C2(CCCC2)NC(=O)C12CCCC2 (configuration not stated)" target_system="TK-10 renal" value_reported="> 100 µM"
compound=COc1cccc2nc(Nc3cccc(NC(=O)c4ccc(N5CCN(C)CC5)c(C(F)(F)F)c4)c3)ccc12 target_system="TK-10 renal" value_reported="6.62 µM"
compound=CCN1CCN(Cc2ccc(Nc3ncc(F)c(-c4cc(F)c5nc(C)n(C(C)C)c5c4)n3)nc2)CC1 target_system="TK-10 renal" value_reported="8.63 µM"
compound=COc1ccc2c(O)c1-c1c(OC)ccc(c1O)SSc1ccc(OC)c(c1O)-c1c(OC)ccc(c1O)SS2 target_system="TK-10 renal" value_reported="> 100 µM"

* * *

The compounds listed here are annotated with their TGI.
- Tested on: UACC-62 melanoma
- ASSAY EXPLANATION: NCI tumour cell line growth inhibition, 48 h
VALUE KIND: TGI (µM)

smiles_string=COc1ccc2nc3cc([N+](=O)[O-])ccc3c(NCCO)c2c1 value_kind=TGI output_unit=µM qualifier_symbol== value_reported=5.23
smiles_string=C=C1N(C)c2ccc(S(=O)(=O)c3ccc4c(c3)C(C)(C)C(=C)N4C)cc2C1(C)C value_kind=TGI output_unit=µM qualifier_symbol=> value_reported=100
smiles_string=CC/C(Cl)=N\OC(=O)Nc1ccc(F)c(Cl)c1 value_kind=TGI output_unit=µM qualifier_symbol== value_reported=46.3
smiles_string=Cc1n[nH]c(=O)n1/N=C/c1ccco1 value_kind=TGI output_unit=µM qualifier_symbol=> value_reported=100

* * *

- Tested on: COLO 205 colon
- ASSAY EXPLANATION: NCI tumour cell line growth inhibition, 48 h
VALUE KIND: TGI

compound="CCCCC(CC)C(=O)Oc1ccc(C(=O)c2ccccc2)c(O)c1 (stereo not drawn)" target_system="COLO 205 colon" value_reported="> 100 µM"
compound="CNC(=O)/C=C/C1=CN2C(=O)c3ccc(C)c(O)c3NC(OC)C2C1 (stereo not drawn)" target_system="COLO 205 colon" value_reported="< 0.0202 µM"
compound=C1CSCCSCCSCCSCCS1 target_system="COLO 205 colon" value_reported="> 100 µM"

* * *

The compounds listed here are annotated with their TGI.
- Tested on: SK-MEL-2 melanoma
- ASSAY EXPLANATION: NCI tumour cell line growth inhibition, 48 h
VALUE KIND: TGI

compound=c1ccc(-c2cc3nc4ccccc4nc3cc(-c3ccccc3)[nH][nH]2)cc1 target_system="SK-MEL-2 melanoma" value_kind=TGI value_reported="> 100 µM"
compound="c1ccc2c(c1)CCN1CCc3ccccc3C1C2 (stereo not drawn)" target_system="SK-MEL-2 melanoma" value_kind=TGI value_reported="> 100 µM"
compound="CSC12c3cc(C)n(-c4ccc(I)cc4)c3CC(C)(C)CN1C(=O)C2Oc1ccccc1 (stereo not drawn)" target_system="SK-MEL-2 melanoma" value_kind=TGI value_reported="> 100 µM"
compound=Clc1nc(Cl)c2ncn(-c3ccccc3)c2n1 target_system="SK-MEL-2 melanoma" value_kind=TGI value_reported="27.1 µM"
compound="c1cc2c(cc1C1OCC3C(c4ccc5c(c4)OCO5)OCC13)OCO2 (stereo not drawn)" target_system="SK-MEL-2 melanoma" value_kind=TGI value_reported="> 100 µM"
compound=CO[P@@]1(=O)O[C@@H](c2ccccc2)[C@H](O)[C@@]1(O)c1ccccc1 target_system="SK-MEL-2 melanoma" value_kind=TGI value_reported="> 100 µM"
compound=O=c1cccccc1[O-].O=c1cccccc1[O-].O=c1cccccc1[O-].[Nd+3] target_system="SK-MEL-2 melanoma" value_kind=TGI value_reported="97.3 µM"
compound="CC1CC(C)(O)C2C3(C)CCCC2(COC3=O)C12CCC1(CCOC1=O)O2 (stereo not drawn)" target_system="SK-MEL-2 melanoma" value_kind=TGI value_reported="> 250 µM"
